Tested on: NOMO1
experiment description: cell viability relative to DMSO control; higher = less cytotoxic
test settings: RPMI 5 mM glucose + 10% FBS; 48 h; 0.0211 µM
Kindly state cell viability for each of the entries shown.
One number for each entry, in %.

{"columns": ["compound", "assay result"],
 "data": [
  ["Oc1nc(-c2ccc(C(F)(F)F)cc2)nc2c1CSCC2", 91.8]
]}

Answer for every listed entry: what is its cell viability? The entries follow.
1. C[C@@H]1CCO[C@H]2CN\3/C=C(/C(=O)NCC4=C(F)C=C(F)C=C4)C(=O)\C(=C3C(=O)N12)O
2. COC(=O)c1ccc2c(c1)NC(=O)/C2=C(\Nc1ccc(N(C)C(=O)CN2CCN(C)CC2)cc1)c1ccccc1
3. COc1ccc2c(c1)[C@]13CCCCC1C(C2)N(C)CC3 (stereo not given in full)
4. O=C(O)c1cc(/N=N/c2ccc([S+](=O)([O-])Nc3ccccn3)cc2)ccc1O
5. CC(C)OC(=O)[C@H](C)N[P@](=O)(OC[C@H]1O[C@@H](N2\C=C/C(=O)NC2=O)[C@](C)(F)[C@@H]1O)OC3=CC=CC=C3
6. CN1\C=N/C2=CC=C(NC3=CC(=CC=C3C)NC(=O)C4=CC(=CC=C4)C(C)(C)C#N)C=C2C1=O

Response:
88.7
97.4
121
96.8
98.4
99
